- Study system: Solute carrier organic anion transporter family member 1B3 (Homo sapiens, UniProt Q9NPD5)
- Sequence (Q9NPD5 whole entry): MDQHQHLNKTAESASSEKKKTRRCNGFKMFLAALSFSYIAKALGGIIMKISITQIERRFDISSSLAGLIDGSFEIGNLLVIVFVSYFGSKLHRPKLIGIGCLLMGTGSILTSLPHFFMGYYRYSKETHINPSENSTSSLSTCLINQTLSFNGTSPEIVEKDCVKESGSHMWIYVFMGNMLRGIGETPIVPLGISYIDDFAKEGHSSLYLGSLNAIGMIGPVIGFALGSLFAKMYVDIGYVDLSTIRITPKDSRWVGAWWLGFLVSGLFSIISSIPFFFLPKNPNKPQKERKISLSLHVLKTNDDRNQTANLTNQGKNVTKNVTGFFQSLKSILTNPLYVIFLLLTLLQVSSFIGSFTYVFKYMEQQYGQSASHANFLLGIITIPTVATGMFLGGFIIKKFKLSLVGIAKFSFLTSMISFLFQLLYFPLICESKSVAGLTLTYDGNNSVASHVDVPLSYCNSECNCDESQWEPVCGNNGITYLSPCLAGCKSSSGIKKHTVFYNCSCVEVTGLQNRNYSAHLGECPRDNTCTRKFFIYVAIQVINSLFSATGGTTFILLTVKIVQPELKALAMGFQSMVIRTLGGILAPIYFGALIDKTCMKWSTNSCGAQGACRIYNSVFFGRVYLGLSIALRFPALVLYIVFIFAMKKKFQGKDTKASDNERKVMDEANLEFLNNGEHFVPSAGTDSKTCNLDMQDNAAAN
- Measurement context: chinese hamster, cho, 10 µM
Outcome measure: residual activity (%)

In [3]: df
Out[3]:
                                   compound                              study_system    outcome_measure  recorded_value
0  CN(C)CCC=C1c2ccccc2COc2ccccc21.Cl [DOXEPIN HYDROCHLORIDE]  Solute carrier organic anion transporter family member 1B3 (Homo sapiens, UniProt Q9NPD5)  residual activity           101.8
1    CCN(CC)CCNc1ccc(CO)c2sc3ccccc3c(=O)c12  Solute carrier organic anion transporter family member 1B3 (Homo sapiens, UniProt Q9NPD5)  residual activity           100.5
2  COC1=C(O)C(=O)c2c(cc3oc(C(C)=O)c(O)c3c2O)C1=O  Solute carrier organic anion transporter family member 1B3 (Homo sapiens, UniProt Q9NPD5)  residual activity           96.54
3               COC(=O)COc1cc(Cl)c(Cl)cc1Cl  Solute carrier organic anion transporter family member 1B3 (Homo sapiens, UniProt Q9NPD5)  residual activity           116.4
4  Cc1cc(O)c2c(c1O)C(=O)c1c(O)cc(C)c(O)c1C2=O  Solute carrier organic anion transporter family member 1B3 (Homo sapiens, UniProt Q9NPD5)  residual activity           105.2

* * *

Entries and their measured Ki follow.
- Study system: Solute carrier organic anion transporter family member 1B1 (Homo sapiens)
- Sequence (Q9Y6L6 whole entry): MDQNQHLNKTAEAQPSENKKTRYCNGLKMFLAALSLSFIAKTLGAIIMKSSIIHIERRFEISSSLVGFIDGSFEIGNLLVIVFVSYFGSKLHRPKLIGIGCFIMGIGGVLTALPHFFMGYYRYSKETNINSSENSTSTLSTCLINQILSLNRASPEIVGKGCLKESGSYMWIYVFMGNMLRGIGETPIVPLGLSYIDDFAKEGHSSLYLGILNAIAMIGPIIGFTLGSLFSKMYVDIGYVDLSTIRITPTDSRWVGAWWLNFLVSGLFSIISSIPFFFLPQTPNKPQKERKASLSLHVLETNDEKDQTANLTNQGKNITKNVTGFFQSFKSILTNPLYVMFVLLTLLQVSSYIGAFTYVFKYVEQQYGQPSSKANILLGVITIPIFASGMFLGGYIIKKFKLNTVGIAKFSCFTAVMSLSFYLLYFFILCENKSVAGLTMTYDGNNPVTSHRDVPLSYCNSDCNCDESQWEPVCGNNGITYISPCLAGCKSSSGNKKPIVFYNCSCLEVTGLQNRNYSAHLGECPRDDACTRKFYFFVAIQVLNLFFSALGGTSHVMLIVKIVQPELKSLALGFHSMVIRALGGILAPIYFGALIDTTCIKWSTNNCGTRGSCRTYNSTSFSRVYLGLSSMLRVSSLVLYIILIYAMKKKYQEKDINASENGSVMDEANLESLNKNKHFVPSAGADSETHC

Compound	Ki
O=C1C=CC(=C(c2ccc(O)cc2)c2ccc(O)cc2)C=C1	1430 nM
CC(=O)Oc1c2c(c(CC=C(C)C)c3c1C(=O)C1=C[C@@H]4CC5C(C)(C)OC(C/C=C(\C)C(=O)O)(C4=O)[C@@]15O3)OC(C)(CCC=C(C)C)C=C2 (stereo not given in full)	2240 nM
CCOC(=O)CCC(=O)O[C@H]1[C@H](O[C@@H]2[C@@H](C)[C@H](O[C@H]3C[C@@](C)(OC)[C@@H](O)[C@H](C)O3)[C@@H](C)C(=O)O[C@H](CC)[C@@](C)(O)[C@H](O)[C@@H](C)C(=O)[C@H](C)C[C@@]2(C)O)O[C@H](C)C[C@@H]1N(C)C [ERYTHROMYCIN ETHYLSUCCINATE]	1670 nM
CC(=O)O[C@@H]1C[C@@]2(C)[C@H](c3ccoc3)C[C@H]3O[C@]32[C@]2(C)C(=O)C(O)=C3C(C)(C)C(=O)C=C[C@]3(C)C12 (stereo not given in full)	1650 nM
CC(=O)O[C@@H]1CC[C@]2(C)[C@H](C[C@@H](OC(C)=O)[C@]3(C)C4=CC(=O)O[C@H](c5ccoc5)[C@@]4(C)CC[C@@H]23)C1(C)C	440 nM

* * *

- Study system: UniProt Q9NPD5
- Measurement context: chinese hamster, cho, 10 µM
# maps each entry to its residual activity

Compound	residual activity
CCOP(=S)(OCC)Oc1nc(Cl)c(Cl)cc1Cl	127.1%
COc1ccc(C(=O)CC(=O)O)c2c1C=CC(C)(C)O2	105.2%
CC(C)(O)CC[C@@H](O)[C@](C)(O)[C@H]1CC[C@@]2(O)C3=CC(=O)[C@@H]4C[C@@H](O)[C@@H](O)C[C@]4(C)[C@H]3CC[C@]12C [20-HYDROXYECDYSONE]	127.1%
CNC1(C)C2CCC(C2)C1(C)C.Cl (stereo unspecified) [MECAMYLAMINE HYDROCHLORIDE]	106.8%
CC(=O)O[C@H]1CC[C@@]2(C)[C@@H](CC[C@@H]3[C@@H]2CC[C@]2(C)[C@@H]4[C@H](C[C@@H]32)O[C@@]2(CCC(C)CO2)[C@H]4C)C1 (stereo partly specified)	107.6%
COP(=S)(OC)Oc1ccc(Sc2ccc(OP(=S)(OC)OC)cc2)cc1	89.27%
CCC(C)C(=O)OC1[C@@H]2CC3=C4CC(=O)O[C@@H](c5ccoc5)[C@]4(C)CCC3[C@@](C)(C2=O)[C@@H](CC(=O)OC)C1(C)C (stereo partly specified)	83.34%
C#C[C@]1(O)CC[C@H]2[C@@H]3CCC4=CC(=O)CC[C@@H]4[C@H]3CC[C@@]21C	109.8%
COc1ccc(C[C@H](N)C(=O)N[C@H]2[C@@H](O)[C@H](n3cnc4c(N(C)C)ncnc43)O[C@@H]2CO)cc1.Cl.Cl [PUROMYCIN HYDROCHLORIDE]	116.6%
COc1ccc2cc(CCC(C)=O)ccc2c1	110.7%
CCCC(=O)O[C@]1(C(=O)CO)CC[C@H]2[C@@H]3CCC4=CC(=O)CC[C@]4(C)[C@H]3[C@@H](O)C[C@@]21C [HYDROCORTISONE BUTYRATE]	98.06%
Cn1c(=O)c2c(ncn2CC(O)CO)n(C)c1=O (stereo unspecified)	94.34%
C=CCCCCCCCCCCCC(O)CC(O)COC(C)=O (stereo unspecified)	99.6%
O=C1C=C2C=C[C@@H]3C[C@@]2(O1)[C@H]1CCCCN31	115.4%
COP(=O)(NC(C)=O)SC (stereo unspecified) [ACEPHATE]	83.6%
CCOC(=O)C1(O)Oc2cc(OC)cc(OC)c2C(=O)C1c1ccccc1 (stereo unspecified)	104%

* * *

- Study system: Solute carrier organic anion transporter family member 1B3 (Homo sapiens, UniProt Q9NPD5)
- Measurement context: chinese hamster, cho, 10 µM
Outcome measure: residual activity (%)

Molecule	Study system	Outcome measure	Recorded value
O=C(CCc1ccc(O)cc1)c1c(O)cc(O)cc1O [PHLORETIN]	Solute carrier organic anion transporter family member 1B3 (Homo sapiens, UniProt Q9NPD5)	residual activity	98.4
CCOC(=O)C(Cc1ccc(O)cc1)NC(C)=O (stereo unspecified) [ACETYL TYROSINE ETHYL ESTER]	Solute carrier organic anion transporter family member 1B3 (Homo sapiens, UniProt Q9NPD5)	residual activity	103.5
N[C@@H](CSCSC[C@H](N)C(=O)O)C(=O)O	Solute carrier organic anion transporter family member 1B3 (Homo sapiens, UniProt Q9NPD5)	residual activity	96.92
C[C@@H]1C[C@H]2CC(=O)[C@H]3CCCN4CCCC2[C@]34C1.[O-][Cl+3]([O-])([O-])O (stereo partly specified)	Solute carrier organic anion transporter family member 1B3 (Homo sapiens, UniProt Q9NPD5)	residual activity	106.7
CC(=O)O[C@H]1CC[C@@]2(C)C(=CC[C@@H]3[C@@H]2CC[C@]2(C)C4C(C[C@@H]32)OC2(CCC(C)CO2)[C@H]4C)C1 (stereo partly specified)	Solute carrier organic anion transporter family member 1B3 (Homo sapiens, UniProt Q9NPD5)	residual activity	105.4
CCC(=O)OCC(=O)[C@@]1(OC(=O)CC)[C@@H](C)C[C@H]2[C@@H]3CCC4=CC(=O)C=C[C@]4(C)[C@@]3(Cl)[C@@H](O)C[C@@]21C [BECLOMETHASONE DIPROPIONATE]	Solute carrier organic anion transporter family member 1B3 (Homo sapiens, UniProt Q9NPD5)	residual activity	14.78
CC(C(=O)O)c1ccc(N2Cc3ccccc3C2=O)cc1 (stereo unspecified) [INDOPROFEN]	Solute carrier organic anion transporter family member 1B3 (Homo sapiens, UniProt Q9NPD5)	residual activity	96.18
CC(=O)S[C@@H]1CC2=CC(=O)CC[C@]2(C)[C@H]2CC[C@@]3(C)[C@@H](CC[C@@]34CCC(=O)O4)[C@H]12 [SPIRONOLACTONE]	Solute carrier organic anion transporter family member 1B3 (Homo sapiens, UniProt Q9NPD5)	residual activity	103.5
Nc1nc2ncc(CNc3ccc(C(=O)N[C@@H](CCC(=O)O)C(=O)O)cc3)nc2c(=O)[nH]1 [FOLIC ACID]	Solute carrier organic anion transporter family member 1B3 (Homo sapiens, UniProt Q9NPD5)	residual activity	109.7
CCCCC(=O)O[C@H]1CC[C@H]2[C@@H]3CCc4cc(O)ccc4[C@H]3CC[C@]12C [ESTRADIOL VALERATE]	Solute carrier organic anion transporter family member 1B3 (Homo sapiens, UniProt Q9NPD5)	residual activity	129.8
C1CNCCN1 [PIPERAZINE]	Solute carrier organic anion transporter family member 1B3 (Homo sapiens, UniProt Q9NPD5)	residual activity	102.1
CC1=C(O)C(=O)C=C2C1=CC=C1[C@@]2(C)CC[C@@]2(C)[C@@H]3C[C@](C)(C(=O)O)CC[C@]3(C)CC[C@]12C [CELASTROL]	Solute carrier organic anion transporter family member 1B3 (Homo sapiens, UniProt Q9NPD5)	residual activity	90.72
CC(C)=CCc1c(O)cc(C)oc1=O [2-ISOPRENYL-3-HYDROXY-5-METHYL-a-PYRONE]	Solute carrier organic anion transporter family member 1B3 (Homo sapiens, UniProt Q9NPD5)	residual activity	115.1
Cl.Clc1cccc(Cl)c1NC1=NCCN1 [CLONIDINE HYDROCHLORIDE]	Solute carrier organic anion transporter family member 1B3 (Homo sapiens, UniProt Q9NPD5)	residual activity	99.63
CC1=CC(=O)C2=C(C)C[C@H](O)[C@@H]3[C@H](OC(=O)[C@H]3C)[C@H]12 [AUSTRICINE]	Solute carrier organic anion transporter family member 1B3 (Homo sapiens, UniProt Q9NPD5)	residual activity	86.81
COc1cc2c(cc1O)[C@@H](Cc1ccc(O)cc1)[N+](C)(C)CC2.[I-] [MAGNOCURARINE IODIDE]	Solute carrier organic anion transporter family member 1B3 (Homo sapiens, UniProt Q9NPD5)	residual activity	96.29
